Assay: Tanguay_ZF_120hpf_YSE_legacy: (Legacy) Oregon State University Tanguay Lab 120 Hour Post-fertilization zebrafish Assay for Yolk Sac Edema (AID 2283634)
Inconclusive results are not listed. Activity calls are given as the source filed them. Rule for the calls: active = hit-call score of the fitted dose curve at least 0.9, where 1 is the maximum; inconclusive = response in the unintended direction; inactive = score below 0.9.
Could you please pick one outcome from this set? true for active, false for inactive

Hello, I am checking results. What call was entered for c1ccc2c(c1)-c1cccc3cccc-2c13 ? false

Tell me the assay call for CNC(=O)Oc1cccc2c1OC(C)(C)C2 please. false

In this assay, the call recorded for OCCCBr was what? false

Write down the call the test reported for this compound. Item: COC(=O)Nc1nc2ccccc2[nH]1 true

Hello, I am checking results. What call was entered for C=CCc1ccc2c(c1)OCO2 ? false

Dear colleague, could you share the recorded outcome for CCCCCCCCOC(=O)c1ccc(C(=O)OCCCCCCCC)c(C(=O)OCCCCCCCC)c1 when you have a moment? false

Name the outcome recorded for O=Cc1ccco1 in the assay. false

For Nc1ccc([N+](=O)[O-])cc1 , which call appears in the assay record? false
